Ref: the supplement of paper PMC3334620

- tested_on: Stb5 (UniProt P38699)
- Sequence: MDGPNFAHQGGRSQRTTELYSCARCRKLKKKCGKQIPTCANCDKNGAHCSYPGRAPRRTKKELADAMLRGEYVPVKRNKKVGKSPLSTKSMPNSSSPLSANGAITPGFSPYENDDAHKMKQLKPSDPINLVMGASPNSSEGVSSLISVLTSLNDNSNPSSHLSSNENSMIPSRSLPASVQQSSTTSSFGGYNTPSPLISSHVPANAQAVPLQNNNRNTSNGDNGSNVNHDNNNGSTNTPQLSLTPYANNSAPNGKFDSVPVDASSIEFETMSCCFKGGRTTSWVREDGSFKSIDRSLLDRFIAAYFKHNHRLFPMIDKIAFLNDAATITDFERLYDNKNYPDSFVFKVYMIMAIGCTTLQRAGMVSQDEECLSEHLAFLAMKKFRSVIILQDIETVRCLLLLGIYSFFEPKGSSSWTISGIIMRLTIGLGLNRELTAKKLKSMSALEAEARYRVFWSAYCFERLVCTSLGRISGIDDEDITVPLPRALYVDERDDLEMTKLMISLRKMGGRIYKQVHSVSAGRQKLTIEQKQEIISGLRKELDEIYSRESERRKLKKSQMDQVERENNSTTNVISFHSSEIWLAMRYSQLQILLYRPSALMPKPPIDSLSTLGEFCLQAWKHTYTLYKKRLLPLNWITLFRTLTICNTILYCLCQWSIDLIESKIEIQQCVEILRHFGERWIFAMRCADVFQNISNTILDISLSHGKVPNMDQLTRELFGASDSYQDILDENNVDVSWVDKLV
- assay_name: PBM E-score (8-mer binding enrichment) (E-score (-0.5 to 0.5)); higher = stronger / more preferred TF binding
- test_context: protein concentration: 200 nM; construct: GST-full length
Over roughly 33,000 sequences, “E-score (-0.5 to 0.5)” has its median near -0.054; the highest 2% begin near 0.35. What follows is part of a selection rich in the highest values, with near analogues and random picks from the rest.
Note to self: values exactly at 0.3 are Satisfied. So PBM E-score at or above 0.3 is Satisfied, below is Not satisfied.

Example entries begin here.
>  <seq>
GGCCCGAA

>  <discrete_label>
Not satisfied

$$$$
>  <seq>
CGAAAGAG

>  <discrete_label>
Not satisfied

$$$$
>  <seq>
GACGCCGC

>  <discrete_label>
Satisfied

$$$$
>  <seq>
CGCCCGCC

>  <discrete_label>
Not satisfied

$$$$
>  <seq>
ATTCGCGG

>  <discrete_label>
Not satisfied

$$$$

Exercise: Check the entry TACAACCA : does PBM E-score equal or exceed 0.3?
Solution: Not satisfied

Exercise: Check the entry AGTCCGAG : does PBM E-score equal or exceed 0.3?
Solution: Not satisfied

Exercise: Check the entry CAGCGGGG : does PBM E-score equal or exceed 0.3?
Solution: Satisfied

Exercise: Check the entry AACGCCAT : does PBM E-score equal or exceed 0.3?
Solution: Not satisfied

Exercise: Check the entry CCCGACGG : does PBM E-score equal or exceed 0.3?
Solution: Satisfied

Exercise: Check the entry TCCGACGA : does PBM E-score equal or exceed 0.3?
Solution: Not satisfied

Exercise: Check the entry AGCCCGCG : does PBM E-score equal or exceed 0.3?
Solution: Satisfied

Exercise: Check the entry AACGCCTT : does PBM E-score equal or exceed 0.3?
Solution: Not satisfied

Exercise: Check the entry CAGCGGCG : does PBM E-score equal or exceed 0.3?
Solution: Satisfied

Exercise: Check the entry AGCCCGAC : does PBM E-score equal or exceed 0.3?
Solution: Satisfied

Exercise: Check the entry CACGCCGA : does PBM E-score equal or exceed 0.3?
Solution: Not satisfied

Exercise: Check the entry CCCGACGC : does PBM E-score equal or exceed 0.3?
Solution: Satisfied

Exercise: Check the entry ACCGACGA : does PBM E-score equal or exceed 0.3?
Solution: Satisfied

Exercise: Check the entry CCAGACGG : does PBM E-score equal or exceed 0.3?
Solution: Not satisfied

Exercise: Check the entry AACGCCTC : does PBM E-score equal or exceed 0.3?
Solution: Not satisfied

Exercise: Check the entry TGCGGTAA : does PBM E-score equal or exceed 0.3?
Solution: Not satisfied
